# measured.target: fibroblast activation protein (FAP) (Homo sapiens, UniProt Q12884)
# Sequence (Q12884 1-760): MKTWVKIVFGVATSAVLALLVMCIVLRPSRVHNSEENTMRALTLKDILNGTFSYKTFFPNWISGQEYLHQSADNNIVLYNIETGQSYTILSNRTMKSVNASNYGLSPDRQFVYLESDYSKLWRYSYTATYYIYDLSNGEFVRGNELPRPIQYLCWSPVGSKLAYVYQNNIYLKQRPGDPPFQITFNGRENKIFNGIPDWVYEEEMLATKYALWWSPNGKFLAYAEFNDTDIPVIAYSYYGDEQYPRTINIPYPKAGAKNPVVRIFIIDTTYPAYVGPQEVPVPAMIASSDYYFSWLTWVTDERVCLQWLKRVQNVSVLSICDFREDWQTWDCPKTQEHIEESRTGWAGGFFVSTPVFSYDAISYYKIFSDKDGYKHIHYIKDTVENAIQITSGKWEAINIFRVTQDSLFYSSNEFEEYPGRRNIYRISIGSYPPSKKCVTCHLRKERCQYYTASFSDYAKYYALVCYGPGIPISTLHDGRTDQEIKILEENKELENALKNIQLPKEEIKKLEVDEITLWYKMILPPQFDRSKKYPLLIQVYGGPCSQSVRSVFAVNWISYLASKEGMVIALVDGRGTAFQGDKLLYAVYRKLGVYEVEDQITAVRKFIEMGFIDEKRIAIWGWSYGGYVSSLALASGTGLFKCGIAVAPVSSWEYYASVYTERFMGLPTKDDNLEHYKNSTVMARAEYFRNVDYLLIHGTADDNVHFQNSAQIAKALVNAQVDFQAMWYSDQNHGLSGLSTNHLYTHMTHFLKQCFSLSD
# assay.procedure: unlabelled competitor ([…] concentrations) displacing […]-iFAP from HCT116 cells
reported.metric: IC50 (nM)
Respond with the bare value in nM.

I'd like to know its IC50. The molecule in question is C[C@H](NC(=O)c1ccc(NNC(=S)Nc2ccc(CC3CN(CC(=O)O)CCN(CC(=O)O)CCN(CC(=O)O)CCN3CC(=O)O)cc2)nc1)C(=O)N1CCC[C@@H]1B(O)O (stereo partly shown) [DOTA-iFAP]
0.57
